The measured values listed here are drawn from patent US20230113037A1.

# Measured Target: AHR (Mus musculus, UniProt P30561)
# Sequence (P30561 whole entry P471L/N533S/M589L, form open): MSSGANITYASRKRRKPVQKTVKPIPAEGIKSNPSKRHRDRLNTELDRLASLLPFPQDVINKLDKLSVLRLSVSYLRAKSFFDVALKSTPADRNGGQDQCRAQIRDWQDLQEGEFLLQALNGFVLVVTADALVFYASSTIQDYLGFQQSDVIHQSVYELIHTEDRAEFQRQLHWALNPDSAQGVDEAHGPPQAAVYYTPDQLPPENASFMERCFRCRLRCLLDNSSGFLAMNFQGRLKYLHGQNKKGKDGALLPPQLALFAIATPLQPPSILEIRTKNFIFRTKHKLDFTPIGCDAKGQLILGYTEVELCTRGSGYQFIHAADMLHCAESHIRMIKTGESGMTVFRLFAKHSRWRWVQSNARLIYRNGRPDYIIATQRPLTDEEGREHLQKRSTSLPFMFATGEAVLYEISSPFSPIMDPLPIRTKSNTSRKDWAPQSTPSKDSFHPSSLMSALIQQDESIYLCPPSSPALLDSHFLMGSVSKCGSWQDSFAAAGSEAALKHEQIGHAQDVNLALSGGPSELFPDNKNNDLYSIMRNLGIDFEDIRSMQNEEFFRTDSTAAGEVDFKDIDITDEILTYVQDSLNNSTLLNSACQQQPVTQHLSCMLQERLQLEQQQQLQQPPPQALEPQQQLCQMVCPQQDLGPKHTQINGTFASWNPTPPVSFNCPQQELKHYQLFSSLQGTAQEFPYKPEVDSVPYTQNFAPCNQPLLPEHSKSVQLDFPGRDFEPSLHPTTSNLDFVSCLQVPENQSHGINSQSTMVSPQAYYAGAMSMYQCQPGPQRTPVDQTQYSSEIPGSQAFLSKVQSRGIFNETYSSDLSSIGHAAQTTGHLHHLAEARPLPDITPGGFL
# Experiment: In vitro assay 3: antagonism in mouse cell line (AHR transactivation, firefly luciferase reporter, kynurenic acid prestimulated)
# Assay type: cell-based
# Study Conditions: mouse Hepa 1c1c7 cells, 200 μM kynurenic acid, 20 hours, read-out: AHR Antagonism Mouse IC50
Recorded measurements of pIC50, one per entry
Expect pIC50 as a plain number equal to -log10 of the molar concentration.

Solved cases (10 shown):
>>> observed("O=C1NCCCC[C@H]1Nc1nc2ccccc2c2nc(-c3cccnc3)nn12")
8.33
>>> observed("COc1cccc(-c2nc3c4ccccc4nc(NC4CCCNC4=O)n3n2)c1 (single isomer, unassigned) [Example 118]")
7.40
>>> observed("CCNC(=O)C(CC)Nc1nc2ccccc2c2nc(-c3ccccc3OC(F)(F)F)nn12 (single isomer, unassigned) [Example 664]")
8.83
>>> observed("COc1ccc(-c2nc3c4ccccc4nc(N[C@@H]4CNCCNC4=O)n3n2)cc1OC")
7.77
>>> observed("COCc1noc(-c2nc3c4ccccc4nc(N[C@@H]4CCCCNC4=O)n3n2)n1")
6.53
>>> observed("O=C1NCC[C@H]1Nc1nc2ccccc2c2nc(-c3ccc(Cl)cc3OC(F)(F)F)nn12")
8.02
>>> observed("O=C1NCCNC[C@H]1Nc1nc2c(Br)cccc2c2nc(-c3ccc(F)cc3)nn12")
8.92
>>> observed("O=C1NCCCC[C@H]1Nc1nc2ccccc2c2nc(-c3cnccn3)nn12")
6.81
>>> observed("COc1ccc(-c2nc3c4cccc(Br)c4nc(N[C@H](C)C(=O)N4CCOCC4)n3n2)cc1")
9.00
>>> observed("Cc1cccc(C)c1-c1nc2c3ccccc3nc(N[C@@H]3CCCCNC3=O)n2n1")
8.33

Req: Can you look up the measured pIC50 of `Cc1n[nH]c(C)c1-c1nc2c3ccccc3nc(N[C@@H]3CCCCNC3=O)n2n1` for me?
Resp: 7.02

Req: Can you look up the measured pIC50 of `O=C1NCCCC[C@H]1Nc1nc2ccccc2c2nc(-c3cn[nH]c3)nn12` for me?
Resp: 6.34

Req: Can you look up the measured pIC50 of `CCOc1cccc2c1nc(N[C@@H]1CCCCNC1=O)n1nc(-c3ccc(OC)cc3)nc21` for me?
Resp: 8.34

Req: Can you look up the measured pIC50 of `CSc1ccc(-c2nc3c4ccccc4nc(N[C@@H]4CCCCNC4=O)n3n2)cc1` for me?
Resp: 9.18
